I'd appreciate it if you could supply % degradation in 24 h when incubated with DPP-IV enzyme values for the items below.
Target: DPP IV (Homo sapiens)
Sequence (P27487 whole entry, species assumed): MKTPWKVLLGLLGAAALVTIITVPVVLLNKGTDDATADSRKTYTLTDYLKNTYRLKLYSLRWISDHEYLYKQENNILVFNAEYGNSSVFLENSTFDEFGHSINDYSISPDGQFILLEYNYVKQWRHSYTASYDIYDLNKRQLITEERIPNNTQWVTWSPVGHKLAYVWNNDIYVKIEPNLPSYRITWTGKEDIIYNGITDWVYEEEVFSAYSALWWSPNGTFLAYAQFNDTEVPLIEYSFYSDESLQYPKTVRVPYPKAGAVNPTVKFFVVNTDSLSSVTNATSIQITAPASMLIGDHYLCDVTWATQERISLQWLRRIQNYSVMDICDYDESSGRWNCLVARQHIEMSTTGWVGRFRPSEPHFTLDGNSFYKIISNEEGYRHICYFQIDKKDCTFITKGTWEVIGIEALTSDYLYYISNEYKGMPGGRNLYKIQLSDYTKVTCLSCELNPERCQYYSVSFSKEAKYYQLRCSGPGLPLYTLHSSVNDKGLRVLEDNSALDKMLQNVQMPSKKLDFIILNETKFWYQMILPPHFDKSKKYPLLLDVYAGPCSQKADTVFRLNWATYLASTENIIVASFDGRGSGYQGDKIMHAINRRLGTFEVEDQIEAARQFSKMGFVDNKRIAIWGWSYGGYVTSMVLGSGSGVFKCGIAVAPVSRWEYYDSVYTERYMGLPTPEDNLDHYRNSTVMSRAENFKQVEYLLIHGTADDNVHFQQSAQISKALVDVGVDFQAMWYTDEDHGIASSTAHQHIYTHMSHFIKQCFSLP
Assay: Stability against DPP IV enzyme
Type: in vitro ADME
Details: 2 μM, 37° C., 24 h
Give bare numbers, in %.

CCc1cc(OC)ccc1-c1ccc(CC(NC(=O)[C@H](CC(=O)O)NC(=O)[C@H](CO)NC(=O)[C@@H](NC(=O)[C@H](Cc2ccccc2)NC(=O)[C@@H](NC(=O)CNC(=O)[C@H](CCC(N)=O)NC(=O)[C@H](C)NC(=O)[C@@H](N)Cc2c[nH]cn2)[C@@H](C)O)[C@@H](C)O)C(=O)NC(Cc2ccc(-c3ccccc3F)cc2)C(N)=O)cc1 (single isomer, unassigned) = 86

Parameters: items (list). Returns: % degradation in 24 h when incubated with DPP-IV enzyme for each item.
1. CCc1cc(OC)ccc1-c1ccc(CC(NC(=O)[C@H](CC(=O)O)NC(=O)[C@H](CO)NC(=O)[C@@H](NC(=O)C(C)(Cc2ccccc2F)NC(=O)[C@@H](NC(=O)CNC(=O)[C@H](CCC(N)=O)NC(=O)[C@H](CO)NC(=O)[C@@H](N)Cc2c[nH]cn2)[C@@H](C)O)[C@@H](C)O)C(=O)NC(Cc2ccc(-c3ccccc3C)nc2)C(N)=O)cc1 (single isomer, unassigned)
2. CCc1cc(OC)ccc1-c1ccc(CC(NC(=O)[C@H](CC(=O)O)NC(=O)[C@H](CO)NC(=O)[C@@H](NC(=O)C(C)(Cc2ccccc2F)NC(=O)[C@@H](NC(=O)CNC(=O)[C@H](CCC(N)=O)NC(=O)C2(NC(=O)[C@@H](N)Cc3c[nH]cn3)CC2)[C@@H](C)O)[C@@H](C)O)C(=O)NC(Cc2ccc(-c3ccccc3F)cc2)C(N)=O)cc1 (single isomer, unassigned)
3. CCc1cc(OC)ccc1-c1ccc(CC(NC(=O)[C@H](CC(=O)O)NC(=O)[C@H](CO)NC(=O)[C@@H](NC(=O)[C@H](Cc2ccccc2)NC(=O)[C@@H](NC(=O)CNC(=O)[C@H](CCC(N)=O)NC(=O)C2(NC(=O)[C@@H](N)Cc3c[nH]cn3)CC2)[C@@H](C)O)[C@@H](C)O)C(=O)NC(Cc2ccc(-c3ccccc3C(F)(F)F)cc2)C(N)=O)cc1 (single isomer, unassigned)
4. CCc1cc(OC)ccc1-c1ccc(CC(NC(=O)[C@H](CC(=O)O)NC(=O)[C@H](CO)NC(=O)[C@@H](NC(=O)[C@H](Cc2ccccc2)NC(=O)[C@@H](NC(=O)CNC(=O)[C@H](CCC(N)=O)NC(=O)[C@H](C)NC(=O)[C@@H](N)Cc2c[nH]cn2)[C@@H](C)O)[C@@H](C)O)C(=O)NC(Cc2ccc(-c3ccccc3C)cc2)C(N)=O)cc1 (single isomer, unassigned)

Reply:
1. 75
2. 00
3. 00
4. 74

For every listed record, write down its % degradation in 24 h when incubated with DPP-IV enzyme.
1. CCc1cc(OC)ccc1-c1ccc(CC(NC(=O)[C@H](CC(=O)O)NC(=O)[C@H](CO)NC(=O)[C@@H](NC(=O)[C@H](Cc2ccccc2)NC(=O)[C@@H](NC(=O)CNC(=O)[C@H](CCC(N)=O)NC(=O)C2(NC(=O)[C@@H](N)Cc3c[nH]cn3)CC2)[C@@H](C)O)[C@@H](C)O)C(=O)NC(Cc2ccc(-c3ccccc3C)cc2)C(N)=O)cc1 (single isomer, unassigned)
2. CCc1cc(OC)ccc1-c1ccc(CC(NC(=O)[C@H](CC(=O)O)NC(=O)[C@H](CO)NC(=O)[C@@H](NC(=O)C(C)(Cc2ccccc2F)NC(=O)[C@@H](NC(=O)CNC(=O)[C@H](CCC(N)=O)NC(=O)C(C)(C)NC(=O)[C@@H](N)Cc2c[nH]cn2)[C@@H](C)O)[C@@H](C)O)C(=O)NC(Cc2ccc(-c3ccccc3C)nc2)C(N)=O)cc1 (single isomer, unassigned)
3. CCc1cc(OC)ccc1-c1ccc(CC(NC(=O)[C@H](CC(=O)O)NC(=O)[C@H](CO)NC(=O)[C@@H](NC(=O)C(C)(Cc2ccccc2F)NC(=O)[C@@H](NC(=O)CNC(=O)[C@H](CCC(N)=O)NC(=O)[C@H](C)NC(=O)[C@@H](N)Cc2c[nH]cn2)[C@@H](C)O)[C@@H](C)O)C(=O)NC(Cc2ccc(-c3ccccc3F)cc2)C(N)=O)cc1 (single isomer, unassigned)

Reply:
00
00
86

Record % degradation in 24 h when incubated with DPP-IV enzyme per entry; entries follow.
1. CCc1cc(OC)ccc1-c1ccc(CC(NC(=O)[C@H](CC(=O)O)NC(=O)[C@H](CO)NC(=O)[C@@H](NC(=O)C(C)(Cc2ccccc2F)NC(=O)[C@@H](NC(=O)CNC(=O)[C@H](CCC(N)=O)NC(=O)C(C)(C)NC(=O)[C@@H](N)Cc2c[nH]cn2)[C@@H](C)O)[C@@H](C)O)C(=O)NC(Cc2ccc(-c3ccccc3F)cc2)C(N)=O)cc1 (single isomer, unassigned)
2. CCc1cc(OC)ccc1-c1ccc(CC(NC(=O)[C@H](CC(=O)O)NC(=O)[C@H](CO)NC(=O)[C@@H](NC(=O)C(C)(Cc2ccccc2F)NC(=O)[C@@H](NC(=O)CNC(=O)[C@H](CCC(N)=O)NC(=O)[C@H](CO)NC(=O)[C@@H](N)Cc2c[nH]cn2)[C@@H](C)O)[C@@H](C)O)C(=O)NC(Cc2ccc(-c3ccccc3F)cc2)C(N)=O)cc1 (single isomer, unassigned)

Reply:
["00", 77]
